- TESTED ON: AKT1 E17K (Homo sapiens, UniProt P31749, E17K)
- Sequence (P31749 whole entry E17K): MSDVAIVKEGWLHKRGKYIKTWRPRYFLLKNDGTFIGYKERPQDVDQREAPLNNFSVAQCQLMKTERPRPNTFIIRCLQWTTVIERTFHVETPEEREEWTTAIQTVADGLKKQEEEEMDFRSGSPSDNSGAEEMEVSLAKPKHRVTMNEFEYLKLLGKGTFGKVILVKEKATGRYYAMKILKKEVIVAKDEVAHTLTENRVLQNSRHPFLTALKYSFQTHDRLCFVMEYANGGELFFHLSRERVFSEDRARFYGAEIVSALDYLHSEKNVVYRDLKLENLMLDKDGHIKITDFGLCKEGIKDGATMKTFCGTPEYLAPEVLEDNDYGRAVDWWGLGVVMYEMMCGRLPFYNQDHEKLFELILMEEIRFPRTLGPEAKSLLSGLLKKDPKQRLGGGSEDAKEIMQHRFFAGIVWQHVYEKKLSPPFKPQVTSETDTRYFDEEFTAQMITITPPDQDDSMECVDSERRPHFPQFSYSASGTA
- TEST DETAILS: Live cell target engagement by NanoBRET competitive probe displacement, AKT1 E17K
- SETUP CONDITIONS: transfected HEK293 cells, 2 h at 37° C., read-out: AKT1 E17K IC50: GeoMean IC50
- Method: Determining live cell AKT1 E17K, AKT1 WT, and AKT2 target engagement by NanoBRET competitive probe displacement. Live cell target engagement assays were performed as described (Vasta, J. D. et al. Cell Chem Biol 2018, 25(11), 206-214). […] After incubation for 2 h at 37° C., luciferase substrate and extracellular luciferase inhibitor were added to all wells, and luminescent intensity at 460 nm and 600 nm were measured on a multimode plate-reader. […]
METRIC NAME: IC50

Sample answers from the record:
COMPOUND	VAL
Nc1ncccc1-c1nc2ccc(-c3ncc[nH]3)nc2n1-c1ccc2c(c1)CC[C@@H]2NC(=O)c1ccc(O)c(C=O)c1	10 to 100 nM
CC(=O)Nc1ccc(C(=O)N[C@H]2CCc3cc(-n4c(-c5cccnc5N)nc5ccc(-c6ccccc6)nc54)ccc32)cc1C=O	< 10 nM
Nc1ncccc1-c1nc2ccc(-n3cccn3)nc2n1-c1ccc2c(c1)C(O)C[C@@H]2NC(=O)c1ccc(O)c(C=O)c1 (single isomer, unassigned)	10 to 100 nM
Nc1ncccc1-c1nc2ccc(-c3cccc(F)c3)nc2n1-c1ccc2c(c1)CC[C@@H]2NC(=O)c1ccc(O)c(C=O)c1	10 to 100 nM
Nc1ncccc1-c1nc2c(Cl)cc(-n3cccn3)nc2n1-c1ccc2c(c1)CC[C@@H]2NC(=O)c1cc(C=O)c(O)c(F)c1F	< 10 nM

Alright, here's another compound for you.
For reference, reported IC50 for Cc1nc(-c2ccc3nc(-c4cccnc4N)n(-c4ccc5c(c4)CC[C@@H]5NC(=O)c4ccc(O)c(C=O)c4)c3n2)no1 stands at 10 to 100 nM

====

- System: LAPC4 prostate cancer cells, which express the AKT1 E17K allele
- TEST DETAILS: Antiproliferative effects in LAPC4 cells (CellTiter Glo, 72 h)
- Assay type: cell-based
- SETUP CONDITIONS: Homo sapiens, LAPC4, 72 h, read-out: LAPC4 proliferation IC50: GeoMean IC50
METRIC NAME: IC50

CN1CCN(c2cccc(-c3ccc4nc(-c5cccnc5N)n(-c5ccc6c(c5)CC[C@@H]6NC(=O)c5ccc(O)c(C=O)c5)c4n3)c2)CC1 10 to 100 nM
Nc1ncccc1-c1nc2ccc(-c3ccn(C4CC4)n3)nc2n1-c1ccc2c(c1)CC[C@@H]2NC(=O)c1cc(C=O)c(O)cc1F 10 to 100 nM
CCc1cc(-n2cccn2)nc2c1nc(-c1cccnc1N)n2-c1ccc2c(c1)CC[C@@H]2NC(=O)c1ccc(O)c(C=O)c1 100 to 2000 nM
Cn1ccc(-c2ccc3nc(-c4cccnc4N)n(-c4ccc5c(c4)CC[C@@H]5NC(=O)c4cc(C=O)c(O)cc4F)c3n2)n1 10 to 100 nM
Nc1ncccc1-c1nc2c(OC(F)F)cc(-n3cccn3)nc2n1-c1ccc2c(c1)CC[C@@H]2NC(=O)c1ccc(O)c(C=O)c1 10 to 100 nM

Alright, here's another molecule for you.
For reference, reported IC50 for Cc1coc(-c2ccc3nc(-c4cccnc4N)n(-c4ccc5c(c4)CC[C@@H]5NC(=O)c4ccc(O)c(C=O)c4)c3n2)n1 stands at 10 to 100 nM
